Test: Stability in cryopreserved hepatocytes, dog
Trep Concentration (μM) 60 min strictly under 0.1 µM means yes (1); at 0.1 µM or over means no (0).

- Compound: "CCCCCC(CCC1C(O)CC2Cc3c(cccc3OCC(=O)O)CC21)OC(=O)CCN (stereo not drawn)"
  Label: "no (0)"
- Compound: "CCCCCC(CCC1C(O)CC2Cc3c(cccc3OCC(=O)O)CC21)OC(=O)NCCO (stereo not drawn)"
  Label: "yes (1)"
- Compound: "CCCCCC(CCC1C(O)CC2Cc3c(cccc3OCC(=O)O)CC21)OCCC (stereo not drawn)"
  Label: "yes (1)"
- Compound: "CCCCCC(CCC1C(O)CC2Cc3c(cccc3OCC(=O)O)CC21)OP(=O)(O)O (stereo not drawn)"
  Label: "no (0)"
- Compound: "CCCCCC(CCC1C(O)CC2Cc3c(cccc3OCC(=O)O)CC21)OC(=O)C(N)CCCCN (stereo not drawn)"
  Label: "no (0)"
- Compound: "CCCCCC(CCC1C(O)CC2Cc3c(cccc3OCC(=O)O)CC21)OCCN1CCOCC1 (stereo not drawn)"
  Label: "yes (1)"
- Compound: "CCCCCC(CCC1C(O)CC2Cc3c(cccc3OCC(=O)O)CC21)OC(=O)c1cccc(O)c1 (stereo not drawn)"
  Label: "yes (1)"
- Compound: "CCCCCC(CCC1C(O)CC2Cc3c(cccc3OCC(=O)O)CC21)OC(=O)COc1ccc(O)cc1 (stereo not drawn)"
  Label: "no (0)"
- Compound: "CCCCC[C@H]1CC[C@@H]2[C@H]3Cc4cccc(OCC(=O)O)c4C[C@H]3C[C@H]2OC(=O)O1"
  Label: "no (0)"

---

Recorded Hydrolysis to treprostinil, % Area, t = 1 week values for a group of compounds are listed next.
Experiment: Hydrolysis of prodrugs to treprostinil at pH 6, 7, 8 and 40 C
Format: physicochemical
Settings: pH 8, 40 C., 1 week
Property Name: Hydrolysis to treprostinil, % Area, t = 1 week (% Area)

- Compound: "CCCCCC(CCC1C(OC(=O)CC)CC2Cc3c(cccc3OCC(=O)O)CC21)OC(=O)CC (centres unmarked) [Prodrug LXX, treprostinil dipropionate]"
  Number: 0.00
- Compound: "CCCCCC(CCC1C(OC(=O)OC)CC2Cc3c(cccc3OCC(=O)O)CC21)OC(=O)OC (centres unmarked) [Prodrug LXXI, treprostinil dicarbonate]"
  Number: 0.00
- Compound: "CCCCCC(CCC1C(O)CC2Cc3c(cccc3OCC(=O)O)CC21)OC(=O)COc1ccccc1 (centres unmarked) [Prodrug LXV]"
  Number: 6.0
- Compound: "CCCCCC(CCC1C(O)CC2Cc3c(cccc3OCC(=O)O)CC21)OC(=O)c1ccc(O)c(O)c1 (centres unmarked) [Prodrug LXVI]"
  Number: 0.73
- Compound: "CCCCCC(CCC1C(O)CC2Cc3c(cccc3OCC(=O)O)CC21)OC(=O)c1ccc(O)cc1 (centres unmarked) [Prodrug LXVIII]"
  Number: 0.00
- Compound: "CCCCCC(CCC1C(O)CC2Cc3c(cccc3OCC(=O)O)CC21)OC(=O)C(C)C (centres unmarked) [Prodrug LXVII]"
  Number: 0.00
- Compound: "CCCCCC(CCC1C(O)CC2Cc3c(cccc3OCC(=O)O)CC21)OC(=O)COc1ccc(OC(F)(F)F)cc1 (centres unmarked) [Prodrug LXIV]"
  Number: 1.8
- Compound: "CCCCCC(CCC1C(O)CC2Cc3c(cccc3OCC(=O)O)CC21)OC(=O)C12CC3CC(CC(C3)C1)C2 (centres unmarked) [Prodrug LXIX]"
  Number: 0.00

---

Assay: Stability in cryopreserved hepatocytes, dog
Trep Concentration (μM) 30 min strictly under 0.1 µM means True; at 0.1 µM or over means False.

- Molecule: "CCCCCC1CCC2C(CC3Cc4c(cccc4OCC(=O)O)CC32)OP(=O)(Oc2ccccc2)O1 (mixture of isomers)"
  Label: "True"
- Molecule: "CCCCCC(CCC1C(OC(=O)CC)CC2Cc3c(cccc3OCC(=O)O)CC21)OC(=O)CC (centres unmarked) [Prodrug LXX, treprostinil dipropionate]"
  Label: "False"
- Molecule: "CCCCCC(CCC1C(O)CC2Cc3c(cccc3OCC(=O)O)CC21)OC(=O)NC (centres unmarked)"
  Label: "True"
- Molecule: "CCCCCC(CCC1C(O)CC2Cc3c(cccc3OCC(=O)O)CC21)OC(=O)CCC(=O)O (centres unmarked)"
  Label: "True"
- Molecule: "CCCCCC(CCC1C(O)CC2Cc3c(cccc3OCC(=O)O)CC21)OC(=O)C(C)(C)C (centres unmarked)"
  Label: "False"
- Molecule: "CCCCCC(CCC1C(O)CC2Cc3c(cccc3OCC(=O)O)CC21)OP(=O)(O)O (centres unmarked)"
  Label: "False"
- Molecule: "CCCCCC(CCC1C(O)CC2Cc3c(cccc3OCC(=O)O)CC21)OC(=O)COc1ccc(OC(F)(F)F)cc1 (centres unmarked)"
  Label: "False"
- Molecule: "CCCCCC(CCC1C(O)CC2Cc3c(cccc3OCC(=O)O)CC21)OC(=O)CCC(=O)N1CCOCC1 (centres unmarked)"
  Label: "True"
- Molecule: "CCCCCC(CCC1C(O)CC2Cc3c(cccc3OCC(=O)O)CC21)OCc1oc(=O)oc1C (centres unmarked)"
  Label: "False"
- Molecule: "CCCCCC(CCC1C(O)CC2Cc3c(cccc3OCC(=O)O)CC21)OC(=O)C12CC3CC(CC(C3)C1)C2 (centres unmarked)"
  Label: "False"
- Molecule: "CCCCCC(CCC1C(O)CC2Cc3c(cccc3OCC(=O)O)CC21)OC(=O)c1cccc(O)c1 (centres unmarked)"
  Label: "True"
- Molecule: "CCCCCC(CCC1C(O)CC2Cc3c(cccc3OCC(=O)O)CC21)OC(=O)c1ccc(C(F)(F)F)cc1 (centres unmarked)"
  Label: "True"
- Molecule: "CCCCCC(CCC1C(O)CC2Cc3c(cccc3OCC(=O)O)CC21)OC(=O)CO (centres unmarked)"
  Label: "False"
- Molecule: "CCCCCC(CCC1C(O)CC2Cc3c(cccc3OCC(=O)O)CC21)Oc1ccccc1C(=O)O (centres unmarked)"
  Label: "True"
- Molecule: "CCCCCC(CCC1C(O)CC2Cc3c(cccc3OCC(=O)O)CC21)OC(=O)CCN (centres unmarked)"
  Label: "True"
- Molecule: "CCCCCC(CCC1C(O)CC2Cc3c(cccc3OCC(=O)O)CC21)OC(=O)c1ccc(O)cc1 (centres unmarked)"
  Label: "True"
- Molecule: "CCCCCC(CCC1C(O)CC2Cc3c(cccc3OCC(=O)O)CC21)OC(=O)COc1ccccc1 (centres unmarked)"
  Label: "False"

---

Assay: Stability in liver microsomes, dog
Recorded Trep Concentration 20 min values for a group of compounds are listed next.
Property Name: Trep Concentration 20 min (µM)

- Compound: "CCCCCC(CCC1C(O)CC2Cc3c(cccc3OCC(=O)O)CC21)OC(=O)CO (stereo not shown)"
  Property Name: "Trep Concentration 20 min"
  Number: 0.828
- Compound: "CCCCCC(CCC1C(O)CC2Cc3c(cccc3OCC(=O)O)CC21)OC(C)=O (stereo not shown)"
  Property Name: "Trep Concentration 20 min"
  Number: 0.899
- Compound: "CCCCCC(CCC1C(O)CC2Cc3c(cccc3OCC(=O)O)CC21)OC(=O)C(C)C (stereo not shown)"
  Property Name: "Trep Concentration 20 min"
  Number: 0.982
- Compound: "CCCCCC(CCC1C(OC(=O)CC)CC2Cc3c(cccc3OCC(=O)O)CC21)OC(=O)CC (stereo not shown) [Prodrug LXX, treprostinil dipropionate]"
  Property Name: "Trep Concentration 20 min"
  Number: 1.24
- Compound: "CCCCCC(CCC1C(O)CC2Cc3c(cccc3OCC(=O)O)CC21)OC(=O)c1ccc(O)c(O)c1 (stereo not shown)"
  Property Name: "Trep Concentration 20 min"
  Number: 0
- Compound: "CCCCCC(CCC1C(O)CC2Cc3c(cccc3OCC(=O)O)CC21)OC(=O)N1CCC(O)CC1 (stereo not shown)"
  Property Name: "Trep Concentration 20 min"
  Number: 0
- Compound: "CCCCCC(CCC1C(O)CC2Cc3c(cccc3OCC(=O)O)CC21)OC(=O)C(N)CCCCN (stereo not shown)"
  Property Name: "Trep Concentration 20 min"
  Number: 0.0405
- Compound: "CCCCCC(CCC1C(O)CC2Cc3c(cccc3OCC(=O)O)CC21)OC(=O)CC (stereo not shown)"
  Property Name: "Trep Concentration 20 min"
  Number: 0.934
- Compound: "CCCCCC(CCC1C(O)CC2Cc3c(cccc3OCC(=O)O)CC21)OC(=O)CN (stereo not shown)"
  Property Name: "Trep Concentration 20 min"
  Number: 0.495
- Compound: "CCCCCC(CCC1C(O)CC2Cc3c(cccc3OCC(=O)O)CC21)OC(=O)COc1ccccc1 (stereo not shown)"
  Property Name: "Trep Concentration 20 min"
  Number: 0.864
- Compound: "CCCCCC(CCC1C(O)CC2Cc3c(cccc3OCC(=O)O)CC21)OC(=O)N1CCCCC1 (stereo not shown)"
  Property Name: "Trep Concentration 20 min"
  Number: 0
- Compound: "CCCCCC(CCC1C(O)CC2Cc3c(cccc3OCC(=O)O)CC21)OC(=O)COc1ccc(O)cc1 (stereo not shown)"
  Property Name: "Trep Concentration 20 min"
  Number: 0.678
- Compound: "CCCCCC(CCC1C(O)CC2Cc3c(cccc3OCC(=O)O)CC21)OCC(=O)O (stereo not shown)"
  Property Name: "Trep Concentration 20 min"
  Number: 0
- Compound: "CCCCCC(CCC1C(O)CC2Cc3c(cccc3OCC(=O)O)CC21)OC(=O)C(C)N (stereo not shown)"
  Property Name: "Trep Concentration 20 min"
  Number: 0.63
- Compound: "CCCCCC(CCC1C(O)CC2Cc3c(cccc3OCC(=O)O)CC21)OC(=O)c1ccc(O)cc1 (stereo not shown)"
  Property Name: "Trep Concentration 20 min"
  Number: 0.0324
- Compound: "CCCCCC(CCC1C(O)CC2Cc3c(cccc3OCC(=O)O)CC21)OC(=O)OC(C)C (stereo not shown)"
  Property Name: "Trep Concentration 20 min"
  Number: 0.66
- Compound: "CCCCCC(CCC1C(O)CC2Cc3c(cccc3OCC(=O)O)CC21)OC(=O)c1ccc(C)cc1 (stereo not shown)"
  Property Name: "Trep Concentration 20 min"
  Number: 0.322
- Compound: "CCCCCC(CCC1C(O)CC2Cc3c(cccc3OCC(=O)O)CC21)OC(=O)COc1ccc(OC(F)(F)F)cc1 (stereo not shown)"
  Property Name: "Trep Concentration 20 min"
  Number: 0.592
- Compound: "CCCCCC(CCC1C(O)CC2Cc3c(cccc3OCC(=O)O)CC21)Oc1ccccc1C(=O)O (stereo not shown)"
  Property Name: "Trep Concentration 20 min"
  Number: 0.003
